# pIC50 per record follows
System Name: human TLR9 (Homo sapiens, UniProt Q9NR96)
Sequence (Q9NR96 26-1032): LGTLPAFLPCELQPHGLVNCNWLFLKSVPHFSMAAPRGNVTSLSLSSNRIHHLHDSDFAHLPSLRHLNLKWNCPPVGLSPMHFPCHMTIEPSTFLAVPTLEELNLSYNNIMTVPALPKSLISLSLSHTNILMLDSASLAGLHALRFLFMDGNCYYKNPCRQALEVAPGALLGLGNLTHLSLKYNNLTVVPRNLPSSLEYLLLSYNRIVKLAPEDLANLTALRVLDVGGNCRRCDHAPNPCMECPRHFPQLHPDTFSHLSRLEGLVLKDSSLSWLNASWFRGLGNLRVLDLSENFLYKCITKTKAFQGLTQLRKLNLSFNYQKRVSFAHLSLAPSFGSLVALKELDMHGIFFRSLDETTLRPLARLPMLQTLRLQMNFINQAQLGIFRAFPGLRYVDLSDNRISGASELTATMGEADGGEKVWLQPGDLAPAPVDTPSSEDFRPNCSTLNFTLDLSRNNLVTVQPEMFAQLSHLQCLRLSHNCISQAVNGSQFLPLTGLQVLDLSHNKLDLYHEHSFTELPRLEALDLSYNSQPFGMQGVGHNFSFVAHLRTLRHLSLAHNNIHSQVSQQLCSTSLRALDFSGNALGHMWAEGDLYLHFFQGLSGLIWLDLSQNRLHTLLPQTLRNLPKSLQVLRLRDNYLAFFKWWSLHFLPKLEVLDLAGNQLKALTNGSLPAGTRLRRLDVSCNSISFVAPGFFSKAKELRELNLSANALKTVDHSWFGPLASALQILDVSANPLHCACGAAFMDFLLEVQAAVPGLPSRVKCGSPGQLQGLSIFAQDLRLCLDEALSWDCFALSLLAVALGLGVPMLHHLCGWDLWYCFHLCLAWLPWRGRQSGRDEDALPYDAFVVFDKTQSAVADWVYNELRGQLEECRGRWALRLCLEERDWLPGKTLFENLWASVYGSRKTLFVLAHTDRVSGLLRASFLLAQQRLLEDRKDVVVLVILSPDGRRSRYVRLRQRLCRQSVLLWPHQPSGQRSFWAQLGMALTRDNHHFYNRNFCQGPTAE
Assay Explanation: TLR9 inhibition reporter assay (HEK-Blue SEAP reporter, ODN2006 stimulation)
Test Conditions: HEK-Blue cells overexpressing human TLR9, SEAP reporter, ODN2006 5 nM, 22 hour incubation
Remember, pIC50 is on a log scale: it is -log10 of the molar concentration.

Example entries and their recorded answers appear below.
In [3]: df
Out[3]:
                                   compound  measured_result
0  Cc1c(-c2[nH]c3ccc(C4CCN(CC5CCOC5)CC4)cc3c2C(C)C)cn(C)c(=O)c1Cl (stereo not drawn) [Example 252]             5.58
1  CC(C)c1c(-c2cc(-c3cncnc3)c(=O)n(C)c2)[nH]c2ccc(C3CCNCC3)cc12 [Example 54]             6.12
2  Cc1c(-c2[nH]c3ccc(C4CCN(C5CCOCC5)CC4)cc3c2C(C)C)cn(C)c(=O)c1Cl [Example 239]             5.24

Exercise: I have this compound here, Cc1c(-c2[nH]c3ccc(C4CCN(C5COC5)CC4)cc3c2C(C)C)cn(C)c(=O)c1C#N [Example 221] , and I need its recorded pIC50.
Key: 4.60

Exercise: Recorded pIC50 of CC(C)c1c(-c2cc(-c3cncnc3)c(=O)n(C)c2)[nH]c2ccc(C3CCN(CC4CCOCC4)CC3)cc12 [Example 100] , please.
Key: 5.51

----------
System Name: human TLR8 (Homo sapiens, UniProt Q9NR97)
Sequence (Q9NR97 27-1041): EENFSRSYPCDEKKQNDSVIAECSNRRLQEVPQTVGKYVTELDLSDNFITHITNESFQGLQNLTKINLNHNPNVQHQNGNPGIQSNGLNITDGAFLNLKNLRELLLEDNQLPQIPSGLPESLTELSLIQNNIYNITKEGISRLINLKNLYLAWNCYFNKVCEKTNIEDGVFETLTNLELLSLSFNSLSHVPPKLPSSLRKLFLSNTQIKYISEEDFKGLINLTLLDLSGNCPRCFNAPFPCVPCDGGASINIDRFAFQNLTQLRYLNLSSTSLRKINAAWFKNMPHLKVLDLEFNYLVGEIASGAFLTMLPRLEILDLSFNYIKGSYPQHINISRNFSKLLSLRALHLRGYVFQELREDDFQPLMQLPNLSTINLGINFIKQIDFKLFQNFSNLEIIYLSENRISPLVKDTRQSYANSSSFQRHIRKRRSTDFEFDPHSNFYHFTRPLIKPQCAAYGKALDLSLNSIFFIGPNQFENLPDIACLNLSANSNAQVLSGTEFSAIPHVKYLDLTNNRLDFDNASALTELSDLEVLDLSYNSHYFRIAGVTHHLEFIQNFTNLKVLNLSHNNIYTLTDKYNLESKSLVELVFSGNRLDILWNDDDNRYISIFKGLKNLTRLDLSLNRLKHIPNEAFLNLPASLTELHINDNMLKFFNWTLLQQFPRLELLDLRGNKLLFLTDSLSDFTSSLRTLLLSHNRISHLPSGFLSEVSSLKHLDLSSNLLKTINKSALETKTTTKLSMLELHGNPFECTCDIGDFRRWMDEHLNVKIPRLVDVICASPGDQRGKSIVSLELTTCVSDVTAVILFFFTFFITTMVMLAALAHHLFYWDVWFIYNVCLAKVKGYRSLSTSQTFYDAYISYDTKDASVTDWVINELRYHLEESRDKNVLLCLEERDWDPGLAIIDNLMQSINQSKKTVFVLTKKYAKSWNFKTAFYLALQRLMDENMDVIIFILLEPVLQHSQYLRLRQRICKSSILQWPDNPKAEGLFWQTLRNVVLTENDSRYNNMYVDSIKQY
Assay Explanation: TLR8 inhibition reporter assay (HEK-Blue SEAP reporter, R848 stimulation)
Test Conditions: HEK-Blue cells overexpressing human TLR8, SEAP reporter, R848 15.9 μM, 22 hour incubation
pIC50: −log10 of the molar value.
Entry flag: condition met if pIC50 reaches 8; condition not met if it does not.

Previously resolved entries follow.
>>> print(df.to_string())
                                   compound        label_class
0  Cc1c(-c2[nH]c3ccc(C4CCN(C(=O)C(F)(F)F)CC4)cc3c2C(C)C)cn(C)c(=O)c1Cl  condition not met
1  COc1c(C)c(-c2[nH]c3ccc(C4CCNCC4)cc3c2C(C)C)cn(C)c1=O  condition not met
2  Cc1c(-c2[nH]c3ccc(C4CCN(CC5CCCO5)CC4)cc3c2C(C)C)cn(C)c(=O)c1Cl (centres unmarked)      condition met
3  Cc1cc(-c2[nH]c3ccc(C4CCN(Cc5ccnn5C)CC4)cc3c2C(C)C)cn(C)c1=O      condition met

Next up:
Exercise: Determine whether this compound has pIC50 no lower than 8: `CC(C)c1c(-c2ccc(=O)n(C)c2)[nH]c2ccc(C3CCN(C(=O)CN(C)C)CC3)cc12`
Key: condition not met

----------
In this section we review reported log10 IC50 values for a set of molecules.
System Name: UniProt:Q9NYK1
Assay Explanation: TLR7 inhibition reporter assay (HEK-Blue SEAP reporter, gardiquimod stimulation)
Test Conditions: HEK-Blue cells overexpressing human TLR7, SEAP reporter, gardiquimod 7.5 μM, 22 hour incubation
Note: values are log10 of IC50 expressed in nM.

>>> df
                                   molecule  measured_result
0  COCCN1CCC(c2ccc3[nH]c(-c4cn(C)c(=O)c(Cl)c4C)c(C(C)C)c3c2)CC1             0.85

Exercise: Hello, I am looking for reported log10 IC50 with UniProt:Q9NYK1 for `Cc1cc(-c2[nH]c3ccc(C4CCN(C5CCOCC5)CC4)cc3c2C(C)C)cn(CC(C)C)c1=O` . Could you help?
Key: 1.68

Exercise: I'm curious: which log10 IC50 was measured for `Cc1c(-c2[nH]c3ccc(C4CCNCC4)cc3c2C(C)C)cc(C#N)c(=O)n1C` tested on UniProt:Q9NYK1?
Key: 1.80

----------
Each entry below carries its recorded IC50.
System Name: UniProt Q9NR97
Assay Explanation: TLR8 inhibition reporter assay (HEK-Blue SEAP reporter, R848 stimulation)
Test Conditions: HEK-Blue cells overexpressing human TLR8, SEAP reporter, R848 15.9 μM, 22 hour incubation
Response body: numeric value in nM, unit text excluded.

In [3]: df
Out[3]:
                                   compound  units_label  measured_result
0  Cc1cc(-c2[nH]c3ccc(C4CCN(C(=O)CN(C)C)CC4)cc3c2C(C)C)nn(C)c1=O [Example 294]           nM             16.9
1  Cc1c(-c2[nH]c3ccc(C4CCN(CC(=O)N(C)C)CC4)cc3c2C(C)C)cn(C)c(=O)c1C#N [Example 147]           nM              4.8

Exercise: Quick one: IC50 of Cc1cc(-c2[nH]c3ccc(C4CCN(C(=O)C(C)(C)CO)CC4)cc3c2C(C)C)cn(C)c1=O [Example 304] ?
Key: 80

Exercise: # input compound: Cc1cc(-c2[nH]c3ccc(C4CCN(C5CCOCC5)CC4)cc3c2C(C)C)cn(Cc2ccccc2)c1=O [Example 263] ; wanted: its IC50
Key: 24.1

----------
Measured IC50, listed per entry for reference.
System Name: human TLR7 (Homo sapiens, UniProt Q9NYK1)
Sequence (Q9NYK1 27-1049): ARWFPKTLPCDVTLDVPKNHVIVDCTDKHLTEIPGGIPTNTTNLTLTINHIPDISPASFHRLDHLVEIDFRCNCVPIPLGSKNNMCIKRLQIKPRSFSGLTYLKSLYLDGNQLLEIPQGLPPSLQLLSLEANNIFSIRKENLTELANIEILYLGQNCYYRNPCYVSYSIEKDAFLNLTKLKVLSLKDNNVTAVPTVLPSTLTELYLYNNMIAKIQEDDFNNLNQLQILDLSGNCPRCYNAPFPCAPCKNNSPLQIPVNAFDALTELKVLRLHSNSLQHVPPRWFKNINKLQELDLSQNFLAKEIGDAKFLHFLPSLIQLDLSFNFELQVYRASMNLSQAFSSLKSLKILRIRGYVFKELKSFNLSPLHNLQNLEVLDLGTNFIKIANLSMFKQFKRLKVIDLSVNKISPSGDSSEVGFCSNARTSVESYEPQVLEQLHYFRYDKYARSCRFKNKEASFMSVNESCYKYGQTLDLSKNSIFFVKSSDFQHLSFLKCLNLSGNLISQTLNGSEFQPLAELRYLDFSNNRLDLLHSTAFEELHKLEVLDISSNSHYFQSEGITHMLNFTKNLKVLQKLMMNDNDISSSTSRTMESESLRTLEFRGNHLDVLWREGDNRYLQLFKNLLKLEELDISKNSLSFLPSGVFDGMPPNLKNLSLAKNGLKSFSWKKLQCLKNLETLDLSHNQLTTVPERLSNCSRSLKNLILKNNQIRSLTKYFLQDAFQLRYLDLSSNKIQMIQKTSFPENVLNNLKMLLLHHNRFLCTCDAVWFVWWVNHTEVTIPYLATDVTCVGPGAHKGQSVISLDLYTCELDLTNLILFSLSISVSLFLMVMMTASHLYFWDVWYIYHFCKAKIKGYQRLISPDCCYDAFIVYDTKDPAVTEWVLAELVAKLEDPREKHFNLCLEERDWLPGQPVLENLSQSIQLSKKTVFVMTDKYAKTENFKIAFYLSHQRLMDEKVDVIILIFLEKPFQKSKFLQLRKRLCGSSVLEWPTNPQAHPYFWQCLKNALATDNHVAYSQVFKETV
Assay Explanation: TLR7 inhibition reporter assay (HEK-Blue SEAP reporter, gardiquimod stimulation)
Test Conditions: HEK-Blue cells overexpressing human TLR7, SEAP reporter, gardiquimod 7.5 μM, 22 hour incubation
Report only the number, with the unit nM understood.

Take a look at these entries with their results.
>>> print(df.to_string())
                                   compound                               system_name  measured_result
0  Cc1c(-c2[nH]c3ccc(C4CCN(C5COC5)CC4)cc3c2C(C)C)nn(C)c(=O)c1C [Example 203]  human TLR7 (Homo sapiens, UniProt Q9NYK1)              272
1  Cc1cc(-c2[nH]c3ccc(C4CCN([C@H]5CCOC[C@@H]5O)CC4)cc3c2C(C)C)cn(C)c1=O [Example 313]  human TLR7 (Homo sapiens, UniProt Q9NYK1)              4.7
2  COc1ncccc1-c1cc(-c2[nH]c3ccc(C4CCNCC4)cc3c2C(C)C)cn(C)c1=O [Example 57]  human TLR7 (Homo sapiens, UniProt Q9NYK1)             68.4

Exercise: Using the record for Cc1cc(-c2[nH]c3ccc(C4CCN(C5CCCOC5)CC4)cc3c2C(C)C)nn(C)c1=O (stereo not shown) [Example 188] , report its IC50.
Key: 14.1
